measured-target: DNA topoisomerase II (Homo sapiens, UniProt P11388+Q02880)
assay-details: Tested for inhibition of topoisomerase II isolated from HeLa cells by DNA-cleavage assay
Mark criterion met only when EC50 stays strictly below 20 µM. Values equal to the cut-off are criterion not met.

>>> assigned_label("O=C(O)c1cn(C2CC2)c2c(F)c(-c3cccnc3)c(F)cc2c1=O")
"criterion not met"
>>> assigned_label("O=C(O)c1cn(C2CC2)c2c(F)c(-c3ccncc3)c(F)cc2c1=O")
"criterion met"
>>> assigned_label("Cc1cc(-c2c(F)cc3c(=O)cc(C)n(C4CC4)c3c2F)cc(C)n1")
"criterion met"
>>> assigned_label("Cc1cc(-c2c(F)cc3c(=O)c(C(=O)O)cn(C4CC4)c3c2F)cc(C)n1")
"criterion met"
>>> assigned_label("Cc1cc(-c2c(F)c(Sc3ccccc3)c3c(=O)c(C(=O)O)cn(C4CC4)c3c2F)cc(C)n1")
"criterion not met"
>>> assigned_label("NC1CCN(c2c(F)cc3c(=O)c(C(=O)O)cn(C4CC4)c3c2F)C1 (configuration not stated)")
"criterion not met"
>>> assigned_label("Cc1cc(-c2c(F)cc3c(O)c(C(=O)O)cnc3c2F)cc(C)n1")
"criterion not met"
>>> assigned_label("CN1CCN(c2c(F)cc3c(=O)c(C(=O)O)cn(C4CC4)c3c2F)CC1")
"criterion not met"
>>> assigned_label("CCn1cc(C(=O)O)c(=O)c2cc(F)c(-c3cc(C)nc(C)c3)c(F)c21")
"criterion not met"
>>> assigned_label("O=C(O)c1cn(C2CC2)c2c(F)c(-c3ccc(O)cc3)c(F)cc2c1=O")
"criterion met"
>>> assigned_label("Cc1ccc(-c2c(F)cc3c(=O)c(C(=O)O)cn(C4CC4)c3c2F)c(C)n1")
"criterion not met"
>>> assigned_label("Cc1cc(-c2c(F)cc3c(=O)c(C(=O)O)csc3c2F)cc(C)n1.Cl")
"criterion not met"
>>> assigned_label("Cc1cc(-c2c(F)cc3c(=O)c(C(=O)O)c(C)n(C4CC4)c3c2F)cc(C)n1")
"criterion not met"
>>> assigned_label("Cc1cc(-c2c(F)cc3c(=O)ccn(C4CC4)c3c2F)cc(C)n1")
"criterion met"
>>> assigned_label("Cc1cc(-c2c(F)cc3c(=O)c(C(=O)O)cn(-c4ccc(F)cc4)c3c2F)cc(C)n1")
"criterion not met"
>>> assigned_label("Cc1cc(-c2c(F)c(N)c3c(=O)c(C(=O)O)cn(C4CC4)c3c2F)cc(C)n1")
"criterion met"
>>> assigned_label("Cc1cc(-c2c(F)cc3c(=O)c(C(=O)O)c(-c4ccccc4)n(C4CC4)c3c2F)cc(C)n1")
"criterion not met"
>>> assigned_label("Cc1cc(-c2c(F)cc3c(=O)c(C(=O)O)cn(CCF)c3c2F)cc(C)n1")
"criterion not met"
>>> assigned_label("Cc1cc(-c2c(F)cc3c(=O)c(C(=O)O)cn(C4CC4)c3c2F)ccn1")
"criterion met"
>>> assigned_label("Cc1cc(-c2c(F)c(F)c3c(=O)c(C(=O)O)cn(C4CC4)c3c2F)cc(C)n1")
"criterion met"
>>> assigned_label("Cc1cc(-c2c(F)cc3c(=O)c(C(=O)[O-])cn(C(C)(C)C)c3c2F)cc(C)n1.[Na+]")
"criterion not met"
>>> assigned_label("Cc1cc(-c2c(F)cc3c(=O)cc(-c4ccccc4)n(C4CC4)c3c2F)cc(C)n1")
"criterion not met"
